assay-summary: 1-octanol-phosphate buffer apparent partition coefficient, log P of the compound at pH 7.4
Format: physicochemical
# logD >= -0.8 gives MET, anything below gives NOT MET

# compound, category
data = [
    ("CC(C)NCC(O)COc1cccc(C(C)C)c1OCC(O)CNC(C)C.Cl (configuration not stated)", "MET"),
    ("Cc1cccc(OCC(O)CNC(C)C)c1OCC(O)CNC(C)C.Cl (configuration not stated)", "NOT MET"),
    ("CC(C)NCC(O)COc1cc2c(cc1OCC(O)CNC(C)C)CCCC2 (configuration not stated)", "MET"),
]

Please indicate if the recorded logD for CC(C)NCC(O)COc1ccc(C(C)C)cc1OCC(O)CNC(C)C.Cl (configuration not stated) meets or exceeds -0.8. NOT MET

Please indicate if the recorded logD for CC(C)NCC(O)COc1ccccc1OCC(O)CNC(C)C (configuration not stated) meets or exceeds -0.8. NOT MET

Please indicate if the recorded logD for Cc1ccc(OCC(O)CNC(C)C)c(OCC(O)CNC(C)C)c1.Cl (configuration not stated) meets or exceeds -0.8. NOT MET

---

assay-summary: Apparent dissociation constant, pKa of the compound
Format: physicochemical
experimental-readout: pKa
# respond with the number and nothing more

Observe how each entry below is paired with its result.
# compound, pKa
measured = [
    ("CC(C)NCC(O)COc1cc2ccccc2cc1OCC(O)CNC(C)C.Cl (configuration not stated)", 9.18),
    ("CC(C)NCC(O)COc1cc2c(cc1OCC(O)CNC(C)C)CCCC2 (configuration not stated)", 9.17),
    ("CC(C)NCC(O)COc1ccc(C(C)C)cc1OCC(O)CNC(C)C.Cl (configuration not stated)", 9.3),
    ("Cc1cccc(OCC(O)CNC(C)C)c1OCC(O)CNC(C)C.Cl (configuration not stated)", 9.23),
    ("CC(C)NCC(O)COc1cccc(C(C)C)c1OCC(O)CNC(C)C.Cl (configuration not stated)", 9.24),
]

So what's the measured pKa for this one? Cc1ccc(OCC(O)CNC(C)C)c(OCC(O)CNC(C)C)c1.Cl (configuration not stated) 9.24

So what's the measured pKa for this one? CC(C)NCC(O)COc1ccccc1OCC(O)CNC(C)C (configuration not stated) 9.22

Provenance of the data: ChEMBL document CHEMBL3272054
